# PROCEDURE DETAILS: Inhibition of Candida albicans ATCC 10231 secreted aspartic protease
ENDPOINT LABEL: IC50 (µM)
Field: numeric (µM). Do not append units.

{"LINE NOTATION": "COc1ccc([C@@H]2CC(=O)c3c(O)c(C)c(O[C@@H]4O[C@@H]5COC(=O)c6cc(O)c(O)c(O)c6-c6c(cc(O)c(O)c6O)C(=O)O[C@H]5[C@H](O)[C@H]4O)c(C)c3O2)cc1", "IC50 (µM)": 8.4}
{"LINE NOTATION": "CC(C)CC(=O)N[C@H](C(=O)N[C@H](C(=O)N[C@@H](CC(C)C)[C@@H](O)CC(=O)N[C@@H](C)C(=O)N[C@@H](CC(C)C)[C@@H](O)CC(=O)O)C(C)C)C(C)C", "IC50 (µM)": 0.016}

Next item in the queue.
Look at this compound and give its reported IC50. `O=c1oc2c(O)c(O)cc3c(=O)oc4c(O)c(O)cc1c4c23`
10.5
